System: alkaline phosphatase
Experiment: cells
Conditions: read-out: EC50 (alkaline phosphatase data, printed in HPR CV-1 column)
MEASURED ATTRIBUTE: EC50 (nM)
Please state the figure in nM; there is no need to write the unit.

Which EC50 value is on record for `CC1(C)OC(=S)Nc2ccc(-c3cccc(C#N)c3)cc21` ?
0.4

====

MEASURED ATTRIBUTE: melting point

# count of solved cases: 4
Fill blank: measured melting point of the compound Cc1cc(C#N)sc1-c1ccc2c(c1)C(C)(C)OC(=S)N2 [Example 16] is ____.
211 to 212 °C

Reported melting point for CC1(C)OC(=S)Nc2ccc(-c3cc(F)cc(Cl)c3)cc21 [Example 27] : what is it?
204 to 205 °C

Return reported melting point; argument: CC1(C)OC(=S)Nc2ccc(-c3cccc(C#N)c3)cc21 [Compound 4]
236 to 237 °C

# melting point lookup, item CC1(C)OC(=S)Nc2ccc(-c3cc(F)cc(C(F)(F)F)c3)cc21 [Example 43]
204 to 206 °C

Consider the record given below.
Given the entry CC1(C)OC(=S)Nc2ccc(-c3cc(C#N)ccc3F)cc21 [Example 47] , report its measured melting point.
250 to 251 °C
